These data points were gathered from ChEMBL document CHEMBL5291721.

- assay.system: 5-hydroxytryptamine receptor 3A (Homo sapiens); note: assay procedure not described here
- Sequence (P46098 whole entry): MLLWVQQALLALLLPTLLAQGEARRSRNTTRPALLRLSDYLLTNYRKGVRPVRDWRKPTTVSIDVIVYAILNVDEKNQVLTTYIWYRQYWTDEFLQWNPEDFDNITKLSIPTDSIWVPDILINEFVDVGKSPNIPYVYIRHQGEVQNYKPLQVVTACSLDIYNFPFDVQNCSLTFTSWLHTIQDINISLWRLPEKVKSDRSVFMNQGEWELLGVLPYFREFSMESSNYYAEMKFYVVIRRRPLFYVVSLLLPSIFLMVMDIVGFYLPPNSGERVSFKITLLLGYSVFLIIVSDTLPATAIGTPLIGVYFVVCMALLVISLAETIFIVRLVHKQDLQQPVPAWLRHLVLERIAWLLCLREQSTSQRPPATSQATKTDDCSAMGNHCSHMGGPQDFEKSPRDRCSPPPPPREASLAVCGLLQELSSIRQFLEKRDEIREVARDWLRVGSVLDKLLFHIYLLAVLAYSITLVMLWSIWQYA
- Format: functional
observed.property: AC50

Query string: Which AC50 value is on record for C=C1C[C@@H]2[C@H](CC[C@]3(C)C(=O)CC[C@@H]23)[C@@]2(C)C=CC(=O)C=C12 ?
Result string: > 30 µM

Query string: Can you check CC(C)[N+](C)(CCC(C(N)=O)(c1ccccc1)c1ccccc1)C(C)C [ISOPROPAMIDE] next?
Result string: > 30 µM

Query string: Can you check O=C(OCCN1CCOCC1)c1cccnc1Nc1cccc(C(F)(F)F)c1 [MORNIFLUMATE] next?
Result string: > 30 µM

Query string: Can you check C[C@@H]1O[C@@H]1P(=O)(O)O next?
Result string: > 30 µM

Query string: Can you check NC1=NC(=O)C(c2ccccc2)O1 (centres undefined) next?
Result string: > 30 µM

Query string: Can you check Cc1ccc(C(=O)c2cc(O)c(O)c([N+](=O)[O-])c2)cc1 next?
Result string: > 10 µM

Query string: Can you check CN1C(=O)CC(=O)N(c2ccccc2)c2cc(Cl)ccc21 next?
Result string: > 10 µM

Query string: Can you check CCC[C@@H]1C[C@@H](C(=O)N[C@@H]([C@H]2O[C@H](SC)[C@H](O)[C@@H](O)[C@H]2O)[C@H](C)Cl)N(C)C1 next?
Result string: > 30 µM

Query string: Can you check NC(=O)c1ncn([C@@H]2O[C@H](CO)[C@@H](O)[C@H]2O)c1O next?
Result string: > 30 µM
